- Target entity: CSNK1D (Homo sapiens)
- Construct: made in house
- Sequence (P48730 whole entry): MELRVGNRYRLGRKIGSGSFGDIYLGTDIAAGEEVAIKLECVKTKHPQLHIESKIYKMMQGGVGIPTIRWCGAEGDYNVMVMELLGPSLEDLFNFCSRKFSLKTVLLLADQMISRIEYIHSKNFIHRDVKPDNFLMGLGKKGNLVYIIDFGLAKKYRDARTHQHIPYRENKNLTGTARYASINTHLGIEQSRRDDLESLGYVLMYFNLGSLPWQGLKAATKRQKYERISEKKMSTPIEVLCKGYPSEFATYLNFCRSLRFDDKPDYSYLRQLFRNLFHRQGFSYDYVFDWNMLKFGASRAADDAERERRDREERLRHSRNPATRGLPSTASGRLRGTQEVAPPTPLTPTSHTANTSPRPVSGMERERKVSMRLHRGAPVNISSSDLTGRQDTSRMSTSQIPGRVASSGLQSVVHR
- Measurement notes: Kinase inhibition test (DNA-tagged kinase, affinity resin, qPCR readout)
- Assay type: binding
- Set-up: key: (−) indicates no effect; (+) indicates weak inhibitory activity; (++) indicates a moderate level of inhibitory activity; (+++) indicates strong inhibitory activity
- Measurement conditions: 1 μM of compound
Measured property: CSNK1D inhibitory activity

Known CSNK1D inhibitory activity results, listed for orientation:
C#Cc1cn([C@@H]2S[C@H](CN)[C@@H](O)[C@H]2O)c2ncnc(N)c12 [Compound 10a]: +++
NC(=O)c1cn([C@@H]2S[C@H](CNC(=O)c3ccccc3)[C@@H](O)[C@H]2O)c2ncnc(N)c12 [Compound 8e]: ++
C=Cc1cn([C@@H]2SC[C@@H](O)[C@H]2O)c2ncnc(N)c12 [Compound 13e]: ++
C#Cc1cn([C@@H]2S[C@H](CNCC)[C@@H](O)[C@H]2O)c2ncnc(N)c12 [Compound 11b]: +++
N#Cc1cn([C@@H]2S[C@H](CNC(N)=O)[C@@H](O)[C@H]2O)c2ncnc(N)c12 [Compound 11aii]: ++
C#Cc1cn([C@@H]2S[C@H](CNC(=O)c3ccccc3)[C@@H](O)[C@H]2O)c2ncnc(N)c12 [Compound 8b]: ++
N#Cc1cn([C@@H]2S[C@H](CO)[C@@H](O)[C@H]2O)c2ncnc(N)c12 [Compound 5]: ++

Reported CSNK1D inhibitory activity, compound N#Cc1cn([C@@H]2S[C@H](COC(=O)c3ccccc3)[C@@H](O)[C@H]2O)c2ncnc(N)c12 [Compound 7g] : ____
+++
